# credit: patent US11999746B2

Task for the reader: assign each of the following compounds its reported IC50.
- System name: Lp-PLA2 in human plasma (Homo sapiens)
- Construct: from tissue; host or cells: pooled human plasma
- Sequence (Q13093 22-441): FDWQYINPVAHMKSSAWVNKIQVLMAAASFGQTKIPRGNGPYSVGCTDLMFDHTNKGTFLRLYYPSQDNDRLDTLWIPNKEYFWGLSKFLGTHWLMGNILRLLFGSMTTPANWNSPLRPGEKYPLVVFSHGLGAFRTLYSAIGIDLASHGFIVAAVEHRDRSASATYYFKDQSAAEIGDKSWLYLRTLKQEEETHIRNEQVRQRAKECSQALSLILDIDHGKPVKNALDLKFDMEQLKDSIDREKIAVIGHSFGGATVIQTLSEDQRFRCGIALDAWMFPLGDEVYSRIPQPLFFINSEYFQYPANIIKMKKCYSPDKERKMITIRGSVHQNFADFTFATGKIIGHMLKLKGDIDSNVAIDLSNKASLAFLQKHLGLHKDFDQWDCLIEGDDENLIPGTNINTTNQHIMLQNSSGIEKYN
- Test details: (3a) Lp-PLA2 human plasma Thio-PAF assay
- Type: biochemical
- Condition notes: (3a) Thio-PAF assay, pooled human plasma; Examples 1-265 and 413-430 were tested here; read-out: pIC50 in the Lp-PLA2 human plasma assay (converted)

Compound | IC50
O=c1nc(OCc2cccc(F)c2)cc2n1C[C@@H]1CCCCN21 | ≤ 10000 nM
CN1c2cc(OCc3cccc(F)c3)nc(=O)n2CC12CCCC2 | ≤ 100 nM
O=c1nc(OCc2ccc(Oc3cnc(C(F)(F)F)nc3)c(F)c2)cc2n1C[C@H]1CCCN21 | ≤ 100 nM

Go through the items and report each one's IC50.
1. O=c1nc(OCc2cc(F)c(F)c(F)c2)cc2n1C[C@@H]1CCOCN21
2. Cc1cc(Oc2c(F)cc(COc3cc4n(c(=O)n3)C[C@H]3CCCN43)cc2F)ccn1
3. O=c1nc(OCc2cc(F)c(OC3CN(CCC(F)(F)F)C3)c(F)c2)cc2n1CC1CCCN21 (stereo not shown)
4. O=c1nc(OCc2cc(F)c(F)c(F)c2)cc2n1C[C@H]1COCCN21

Output line:
1: ≤ 100 nM; 2: ≤ 10000 nM; 3: ≤ 10000 nM; 4: ≤ 100 nM

Batch request: IC50 per item, same order as input.
1. O=c1nc(OCc2cc(F)c(Oc3ccc(C(F)(F)F)nc3)c(F)c2)cc2n1CC1CCCCN21 (stereo not shown) [Example E49]
2. O=c1nc(OCc2ccc(F)c(F)c2)cc2n1C[C@H]1CCCCN21
3. N#Cc1cc(COc2cc3n(c(=O)n2)CC2CCCN32)ccc1Oc1ccc(Cl)c(C(F)(F)F)c1 (stereo not shown)
4. O=c1nc(OCc2cc(F)cc(F)c2)cc2n1C[C@@H]1COCCN21
5. O=c1nc(OCc2cc(F)c(F)c(F)c2)cc2n1C[C@@H]1COCCN21
6. O=c1nc(OCc2cc(F)c(Oc3ccc(C(F)(F)F)nc3)c(F)c2)cc2n1C[C@H]1CCCN21
7. Cc1ccc(Oc2c(F)cc(COc3cc4n(c(=O)n3)C[C@H]3COCN43)cc2F)cn1
8. O=c1nc(OCc2cc(F)c(F)cc2F)cc2n1C[C@H]1COCCN21

Output line:
["≤ 100 nM", "≤ 100 nM", "≤ 100 nM", "≤ 10000 nM", "≤ 10000 nM", "≤ 100 nM", "≤ 100 nM", "≤ 10000 nM"]
